The compounds listed here are annotated with their remaining activity at 1 µM.
biological target: p38a MAPK (Homo sapiens, UniProt Q16539); construct: lines 1-140) and Reaction Biology; assay: Dundee kinase panel; type: biochemical; details: read-out: residual activity
Sequence (Q16539 whole entry): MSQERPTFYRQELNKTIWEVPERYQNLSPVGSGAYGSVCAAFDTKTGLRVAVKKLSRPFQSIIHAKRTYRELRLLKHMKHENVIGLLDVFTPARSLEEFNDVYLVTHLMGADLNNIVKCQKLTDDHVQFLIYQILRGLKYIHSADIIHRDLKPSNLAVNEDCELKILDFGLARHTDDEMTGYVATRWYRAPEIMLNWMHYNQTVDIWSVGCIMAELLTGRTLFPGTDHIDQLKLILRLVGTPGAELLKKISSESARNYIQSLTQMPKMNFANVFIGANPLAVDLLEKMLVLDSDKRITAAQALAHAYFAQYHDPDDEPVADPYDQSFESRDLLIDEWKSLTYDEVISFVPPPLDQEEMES
measured-quantity: remaining activity at 1 µM (%)

INSERT INTO results (compound, measured_on, units, numeric_result) VALUES
  ('COCCOc1ccc(-c2cn(-c3ccccc3)c3nc[nH]c(=O)c23)cc1 [DMX-5804]', 'p38a MAPK (Homo sapiens, UniProt Q16539)', '%', 96),
  ('O=C1Cc2c([nH]c3ccc(Br)cc23)-c2ccccc2N1 [Kenpaullone]', 'p38a MAPK (Homo sapiens, UniProt Q16539)', '%', 94),
  ('O=C1Nc2ccc(I)cc2/C1=C/c1cc(Br)c(O)c(Br)c1 [GW5074]', 'p38a MAPK (Homo sapiens, UniProt Q16539)', '%', 49),
  ('Oc1ncnc2c1c(-c1ccccc1)cn2-c1ccccc1 [F1386-0303]', 'p38a MAPK (Homo sapiens, UniProt Q16539)', '%', 78);

----------
Each entry below carries its reported remaining activity at 1 µM.
target: CK1γ2 (Homo sapiens); construct: lines 1-140) and Reaction Biology; assay: Dundee kinase panel; type: biochemical; settings: read-out: residual activity
Sequence (P78368 whole entry): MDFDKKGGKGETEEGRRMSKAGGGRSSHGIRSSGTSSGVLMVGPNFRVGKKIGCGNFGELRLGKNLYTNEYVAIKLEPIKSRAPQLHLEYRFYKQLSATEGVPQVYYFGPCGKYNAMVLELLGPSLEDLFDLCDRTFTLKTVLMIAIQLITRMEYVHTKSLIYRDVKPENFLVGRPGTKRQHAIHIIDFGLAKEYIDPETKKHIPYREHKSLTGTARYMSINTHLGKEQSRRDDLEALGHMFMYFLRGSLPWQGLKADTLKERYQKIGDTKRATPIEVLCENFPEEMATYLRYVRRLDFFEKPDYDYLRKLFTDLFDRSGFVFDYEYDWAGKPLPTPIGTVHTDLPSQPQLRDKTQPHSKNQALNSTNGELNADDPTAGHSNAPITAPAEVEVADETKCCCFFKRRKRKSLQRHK
measured-quantity: remaining activity at 1 µM (%)

INSERT INTO assay_data (smiles, measured_on, measured_quantity, units, numeric_result) VALUES
  ('O=C1Cc2c([nH]c3ccc(Br)cc23)-c2ccccc2N1', 'CK1γ2 (Homo sapiens)', 'remaining activity at 1 µM', '%', 81),
  ('Oc1ncnc2c1c(-c1ccccc1)cn2-c1ccccc1', 'CK1γ2 (Homo sapiens)', 'remaining activity at 1 µM', '%', 106),
  ('COCCOc1ccc(-c2cn(-c3ccccc3)c3nc[nH]c(=O)c23)cc1', 'CK1γ2 (Homo sapiens)', 'remaining activity at 1 µM', '%', 103),
  ('O=C1Nc2ccc(I)cc2/C1=C/c1cc(Br)c(O)c(Br)c1', 'CK1γ2 (Homo sapiens)', 'remaining activity at 1 µM', '%', 68);

----------
Measured remaining activity at 1 µM of individual entries
target: BRSK2 (Homo sapiens); construct: lines 1-140) and Reaction Biology; assay: Dundee kinase panel; type: biochemical; conditions: read-out: residual activity
Sequence (Q8IWQ3 whole entry): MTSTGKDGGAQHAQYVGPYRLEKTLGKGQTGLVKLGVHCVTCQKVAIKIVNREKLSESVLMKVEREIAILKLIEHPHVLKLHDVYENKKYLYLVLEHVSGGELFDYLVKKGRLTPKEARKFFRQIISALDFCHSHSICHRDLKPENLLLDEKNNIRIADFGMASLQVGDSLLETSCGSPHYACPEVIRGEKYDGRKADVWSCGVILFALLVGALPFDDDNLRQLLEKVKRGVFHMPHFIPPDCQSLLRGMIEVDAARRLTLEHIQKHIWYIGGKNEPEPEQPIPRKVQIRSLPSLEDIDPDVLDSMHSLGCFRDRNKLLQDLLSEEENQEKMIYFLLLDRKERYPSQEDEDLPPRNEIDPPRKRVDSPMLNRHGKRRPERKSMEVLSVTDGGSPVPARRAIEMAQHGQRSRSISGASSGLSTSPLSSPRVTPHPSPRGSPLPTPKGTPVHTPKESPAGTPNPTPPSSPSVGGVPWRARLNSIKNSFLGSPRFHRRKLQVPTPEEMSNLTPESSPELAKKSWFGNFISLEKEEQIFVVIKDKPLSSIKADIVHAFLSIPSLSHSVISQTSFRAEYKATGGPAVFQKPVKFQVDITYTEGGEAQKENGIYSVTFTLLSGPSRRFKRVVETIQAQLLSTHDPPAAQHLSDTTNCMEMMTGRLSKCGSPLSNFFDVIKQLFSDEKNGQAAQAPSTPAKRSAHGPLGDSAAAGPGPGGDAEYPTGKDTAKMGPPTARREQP
measured-quantity: remaining activity at 1 µM

INSERT INTO assay_data (molecule, result) VALUES
  ('O=C1Nc2ccc(I)cc2/C1=C/c1cc(Br)c(O)c(Br)c1 [GW5074]', '75%'),
  ('Oc1ncnc2c1c(-c1ccccc1)cn2-c1ccccc1 [F1386-0303]', '91%'),
  ('O=C1Cc2c([nH]c3ccc(Br)cc23)-c2ccccc2N1 [Kenpaullone]', '35%'),
  ('COCCOc1ccc(-c2cn(-c3ccccc3)c3nc[nH]c(=O)c23)cc1 [DMX-5804]', '92%');

----------
target: TESK1 (Homo sapiens, UniProt Q15569); construct: lines 1-140) and Reaction Biology; assay: Dundee kinase panel; format: biochemical; conditions: read-out: residual activity
Sequence (Q15569 whole entry): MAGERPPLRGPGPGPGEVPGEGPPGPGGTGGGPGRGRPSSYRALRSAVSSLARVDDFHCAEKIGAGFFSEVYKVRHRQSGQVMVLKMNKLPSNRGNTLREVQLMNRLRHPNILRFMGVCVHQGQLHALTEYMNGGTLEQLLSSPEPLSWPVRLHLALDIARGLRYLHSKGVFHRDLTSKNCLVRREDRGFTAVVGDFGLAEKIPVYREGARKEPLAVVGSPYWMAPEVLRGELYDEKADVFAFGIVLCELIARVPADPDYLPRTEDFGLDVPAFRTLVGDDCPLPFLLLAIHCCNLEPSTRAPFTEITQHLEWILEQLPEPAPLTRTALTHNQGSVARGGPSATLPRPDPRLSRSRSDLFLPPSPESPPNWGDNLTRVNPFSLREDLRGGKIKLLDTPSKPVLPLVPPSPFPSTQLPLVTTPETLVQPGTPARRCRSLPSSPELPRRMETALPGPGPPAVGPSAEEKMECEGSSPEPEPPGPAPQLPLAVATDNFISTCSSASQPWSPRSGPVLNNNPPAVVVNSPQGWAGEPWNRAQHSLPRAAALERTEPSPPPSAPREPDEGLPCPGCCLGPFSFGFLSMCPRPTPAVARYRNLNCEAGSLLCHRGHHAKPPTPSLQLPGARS
Overview of reported remaining activity at 1 µM across a group of molecules:
measured-quantity: remaining activity at 1 µM (%)

INSERT INTO assay_data (molecule, units, numeric_result) VALUES
  ('COCCOc1ccc(-c2cn(-c3ccccc3)c3nc[nH]c(=O)c23)cc1 [DMX-5804]', '%', 90),
  ('O=C1Nc2ccc(I)cc2/C1=C/c1cc(Br)c(O)c(Br)c1 [GW5074]', '%', 32),
  ('Oc1ncnc2c1c(-c1ccccc1)cn2-c1ccccc1 [F1386-0303]', '%', 101),
  ('O=C1Cc2c([nH]c3ccc(Br)cc23)-c2ccccc2N1 [Kenpaullone]', '%', 19);
